- TARGET DESC: LRRK2 (Homo sapiens, UniProt Q5S007, G2019S)
- Construct: purchased Invitrogen PV4882 (lot 567054A)
- Sequence (Q5S007 whole entry G2019S): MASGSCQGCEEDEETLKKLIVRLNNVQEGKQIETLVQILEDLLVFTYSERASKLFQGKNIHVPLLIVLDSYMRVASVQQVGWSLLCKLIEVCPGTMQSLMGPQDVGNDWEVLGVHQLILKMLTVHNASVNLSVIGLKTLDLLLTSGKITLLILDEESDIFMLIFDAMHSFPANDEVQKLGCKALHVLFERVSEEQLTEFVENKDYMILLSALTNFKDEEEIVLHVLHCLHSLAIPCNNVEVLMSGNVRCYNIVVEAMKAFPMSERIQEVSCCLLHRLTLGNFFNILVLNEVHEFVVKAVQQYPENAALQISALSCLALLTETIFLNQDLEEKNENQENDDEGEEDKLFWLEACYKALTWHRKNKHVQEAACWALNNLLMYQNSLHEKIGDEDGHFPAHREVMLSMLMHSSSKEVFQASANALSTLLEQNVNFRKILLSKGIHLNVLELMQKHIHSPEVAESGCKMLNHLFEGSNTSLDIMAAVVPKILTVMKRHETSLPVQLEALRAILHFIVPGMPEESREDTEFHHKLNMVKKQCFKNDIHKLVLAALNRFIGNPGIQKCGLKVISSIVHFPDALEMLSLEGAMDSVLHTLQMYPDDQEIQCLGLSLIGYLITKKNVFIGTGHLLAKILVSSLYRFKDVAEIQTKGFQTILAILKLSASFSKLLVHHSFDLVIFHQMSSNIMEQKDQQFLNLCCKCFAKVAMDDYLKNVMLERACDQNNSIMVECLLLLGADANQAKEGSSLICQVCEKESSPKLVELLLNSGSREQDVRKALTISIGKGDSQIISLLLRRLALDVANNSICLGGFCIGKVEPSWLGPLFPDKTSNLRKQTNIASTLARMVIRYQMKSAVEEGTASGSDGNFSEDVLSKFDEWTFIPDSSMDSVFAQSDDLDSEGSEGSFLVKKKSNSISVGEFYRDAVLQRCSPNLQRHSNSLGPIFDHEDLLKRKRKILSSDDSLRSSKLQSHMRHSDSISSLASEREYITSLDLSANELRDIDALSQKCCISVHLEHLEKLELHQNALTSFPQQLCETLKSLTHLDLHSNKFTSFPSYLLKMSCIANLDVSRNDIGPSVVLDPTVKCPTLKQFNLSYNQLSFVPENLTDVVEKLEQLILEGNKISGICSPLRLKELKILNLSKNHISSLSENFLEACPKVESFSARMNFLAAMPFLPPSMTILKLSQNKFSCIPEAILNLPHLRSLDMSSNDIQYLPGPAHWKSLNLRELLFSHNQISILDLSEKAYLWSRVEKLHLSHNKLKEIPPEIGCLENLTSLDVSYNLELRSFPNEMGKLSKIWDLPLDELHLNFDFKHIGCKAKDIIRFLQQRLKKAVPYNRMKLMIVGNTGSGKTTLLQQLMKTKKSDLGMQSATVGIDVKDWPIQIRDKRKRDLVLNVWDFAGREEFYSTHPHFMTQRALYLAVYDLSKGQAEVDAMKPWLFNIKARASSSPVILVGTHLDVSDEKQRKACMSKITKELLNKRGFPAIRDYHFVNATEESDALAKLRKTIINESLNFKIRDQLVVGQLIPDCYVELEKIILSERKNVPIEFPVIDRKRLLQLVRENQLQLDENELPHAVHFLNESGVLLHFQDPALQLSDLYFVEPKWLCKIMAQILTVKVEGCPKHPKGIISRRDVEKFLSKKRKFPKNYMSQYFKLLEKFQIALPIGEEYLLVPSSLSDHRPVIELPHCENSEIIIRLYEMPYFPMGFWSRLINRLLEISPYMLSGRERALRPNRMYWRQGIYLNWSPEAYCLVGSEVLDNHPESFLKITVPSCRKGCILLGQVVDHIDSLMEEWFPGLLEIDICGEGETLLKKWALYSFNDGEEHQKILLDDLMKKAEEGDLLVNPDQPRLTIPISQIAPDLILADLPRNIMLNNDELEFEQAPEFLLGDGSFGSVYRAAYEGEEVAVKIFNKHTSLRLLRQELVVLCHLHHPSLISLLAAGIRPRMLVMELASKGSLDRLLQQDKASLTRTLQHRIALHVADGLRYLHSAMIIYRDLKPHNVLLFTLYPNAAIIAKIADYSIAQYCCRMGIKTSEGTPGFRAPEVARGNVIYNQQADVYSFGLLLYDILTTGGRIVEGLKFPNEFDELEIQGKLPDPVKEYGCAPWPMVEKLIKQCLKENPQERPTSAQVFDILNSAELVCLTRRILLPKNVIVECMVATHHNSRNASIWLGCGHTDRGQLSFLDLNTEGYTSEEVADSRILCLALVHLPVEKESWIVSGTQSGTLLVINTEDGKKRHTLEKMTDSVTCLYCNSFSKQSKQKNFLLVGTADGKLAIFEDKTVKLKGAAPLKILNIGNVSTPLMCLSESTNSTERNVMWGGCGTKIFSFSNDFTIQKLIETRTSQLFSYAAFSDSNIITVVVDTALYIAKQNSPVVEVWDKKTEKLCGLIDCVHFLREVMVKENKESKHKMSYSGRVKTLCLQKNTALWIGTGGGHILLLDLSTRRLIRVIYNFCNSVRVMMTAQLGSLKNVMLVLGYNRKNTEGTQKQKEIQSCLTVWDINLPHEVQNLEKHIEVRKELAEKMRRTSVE
- ASSAY PROCEDURE: In Vitro LRRK2 Assay (LabChip 3000, fluorescently-labeled peptide substrate, ATP)
- Assay type: biochemical
- MEASUREMENT PARAMETERS: read-out: LRRK2 Ki (KI), Table 7
READOUT LABEL: Ki (nM)

COc1nc(Nc2cn(-c3ccncc3C)nc2C)ncc1Cl :: 55
Cc1c(Nc2ncc(Cl)c(OC3COC3)n2)cnn1C :: 39
Cc1c(Nc2ncc(Cl)c(OCC(F)(F)F)n2)cnn1C :: 58.6
COc1nc(Nc2cn(-c3ccc(C(=O)N(C)C)cc3)nc2C)ncc1Cl :: 2.2
CNc1nc(Nc2cnn(CCN3CCOCC3)c2)ncc1C(F)(F)F :: 15
CCNc1nc(Nc2ccn(C)n2)ncc1C(F)(F)F :: 4.6
COc1nc(Nc2cn(C(C)(C)C#N)nc2C)ncc1Cl :: 14
CNc1nc(Nc2ccn(C(C)C)n2)ncc1C(F)(F)F :: 2.5
CCNc1nc(Nc2cnn(C3CCN(CC4OCCO4)CC3)c2C)ncc1C(F)(F)F :: 0.8
CNc1nc(Nc2cn(C3CCOCC3)nc2C)ncc1C(F)(F)F :: 24

[1] CNc1nc(Nc2cnn(CC(F)(F)F)c2C)ncc1C(F)(F)F
[2] CNc1nc(Nc2ccnn2C)ncc1F
[3] COc1nc(Nc2cn(S(C)(=O)=O)nc2C)ncc1Cl
[4] CNc1nc(Nc2cc(C3CC3)nn2C)ncc1Cl
IN: Please list these compounds in decreasing order of Ki. Please express your ranking as an ordered list of the labels.
OUT: 2, 4, 3, 1

[A] CNc1nc(Nc2cc(C(C)C)nn2C)ncc1Cl
[B] COc1nc(Nc2cnn(-c3ccccc3)c2C)ncc1Cl
IN: For the pair A and B , which entry has the numerically smaller recorded Ki? Answer = label.
OUT: A
(A: 16 nM, B: 27 nM)

[1] COc1nc(Nc2cnn(C)c2Cl)ncc1Cl
[2] CNc1nc(Nc2ccnn2C(C)C)ncc1C(F)(F)F
IN: Which numeric Ki is bigger, that of 1 or that of 2 ? Answer = label.
OUT: 2
